Test system: SNB-19 cells
test.details: NCI-60 panel antiproliferation, SNB-19
Type: cell-based, human
test.settings: NCI 60-cell panel

>  <compound>
C=CC[C@H]1C[C@]2([C@@H](C)Cc3ccc(OC)c(OC)c3)OCOC2=CC1=O

>  <IC50 (µM)>
0.3

$$$$

###

Tested on: OVCAR-3 cells
test.details: NCI-60 panel antiproliferation, OVCAR-3
Type: cell-based, human
test.settings: Homo sapiens, NCI 60-cell panel
readout.kind: IC50 (nM)

>  <compound>
C=CC[C@H]1C[C@]2([C@@H](C)Cc3ccc(OC)c(F)c3)OCOC2=CC1=O

>  <experimental.result>
40

$$$$

Ref: patent US9562031B1
